Kindly state IC50 for each of the entries shown.
Biological target: JAK1 (Homo sapiens, UniProt P23458)
Construct: purchased Carna Biosciences, Inc
Sequence (P23458 whole entry): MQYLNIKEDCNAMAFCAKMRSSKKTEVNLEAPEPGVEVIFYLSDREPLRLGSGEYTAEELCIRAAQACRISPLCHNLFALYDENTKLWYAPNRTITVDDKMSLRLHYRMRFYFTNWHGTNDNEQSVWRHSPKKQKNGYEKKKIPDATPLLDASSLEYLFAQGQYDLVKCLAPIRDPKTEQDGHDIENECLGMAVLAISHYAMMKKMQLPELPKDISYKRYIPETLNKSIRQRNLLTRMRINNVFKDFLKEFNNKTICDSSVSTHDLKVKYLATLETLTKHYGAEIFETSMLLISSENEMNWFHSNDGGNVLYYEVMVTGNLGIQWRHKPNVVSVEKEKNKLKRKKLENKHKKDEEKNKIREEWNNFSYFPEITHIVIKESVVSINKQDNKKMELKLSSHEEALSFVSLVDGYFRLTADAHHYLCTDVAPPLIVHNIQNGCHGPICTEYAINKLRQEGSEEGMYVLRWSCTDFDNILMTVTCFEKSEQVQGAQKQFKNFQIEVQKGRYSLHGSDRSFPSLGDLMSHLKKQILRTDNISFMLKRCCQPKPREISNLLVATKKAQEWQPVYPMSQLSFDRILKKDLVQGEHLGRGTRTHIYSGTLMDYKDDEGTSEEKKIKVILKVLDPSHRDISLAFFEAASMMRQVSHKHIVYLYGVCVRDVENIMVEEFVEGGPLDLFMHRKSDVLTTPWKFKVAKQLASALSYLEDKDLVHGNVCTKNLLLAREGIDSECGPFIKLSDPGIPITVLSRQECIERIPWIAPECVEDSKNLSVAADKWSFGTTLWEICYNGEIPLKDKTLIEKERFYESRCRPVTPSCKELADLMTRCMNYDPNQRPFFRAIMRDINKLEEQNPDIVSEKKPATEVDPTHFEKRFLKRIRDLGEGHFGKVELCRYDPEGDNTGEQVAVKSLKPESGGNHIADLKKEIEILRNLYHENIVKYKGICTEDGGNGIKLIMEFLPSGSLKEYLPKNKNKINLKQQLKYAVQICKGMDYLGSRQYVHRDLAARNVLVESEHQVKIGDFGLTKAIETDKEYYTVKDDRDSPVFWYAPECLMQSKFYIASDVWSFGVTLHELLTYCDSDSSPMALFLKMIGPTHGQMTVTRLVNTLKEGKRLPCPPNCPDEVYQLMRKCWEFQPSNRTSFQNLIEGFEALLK
Assay: JAK tyrosine kinase inhibitory activity in the presence of 1 mM ATP (ELISA), JAK1
Assay type: biochemical
Experimental: 1. Preparation of Test Compound The test compound was dissolved in dimethyl sulfoxide (DMSO) to 10 mM and further diluted with DMSO to the concentrations of 1000, 100, 10, 1, 0.1 and 0.01 μM, respectively. For JAK1, these solutions of the test compound at the six concentrations 10 mM, 1000 μM, 100 μM, 10 μM, 1 μM and 0.1 μM were used. […] The activity was determined by ELISA method. […] The absorbance at 450 nm was measured using a microplate reader (BIO-RAD). […]
Where a name gives a salt, the structure may show the parent alone.
Numbers only, in nM.

>>> df
                                   compound                      measured_target  readout_type  unit  measurement
0  CC[C@H](C)Nc1cc(C(=O)N2CCC(NC(=O)OC)CC2)nc(-c2cnn3ccsc23)n1 [Example 125, hydrochloride]  JAK1 (Homo sapiens, UniProt P23458)          IC50    nM          210
1  C[C@H](Nc1cc(C(=O)N2CCC(NC(=O)NC3CC3)CC2)nc(-c2cnn3ccsc23)n1)C1CC1 [Example 34]  JAK1 (Homo sapiens, UniProt P23458)          IC50    nM          350

In the following, a different compound is considered.
Looking up COC(=O)NC1CCN(C(=O)c2cc(Oc3ccccc3)nc(-c3cnn4ccsc34)n2)CC1 [Example 141] , I see its IC50 listed as 1100
